Data provenance: patent US10238618B2

assayProtocol: Total serum fatty acid concentrations in dolphins fed modified diet
Assay type: in vivo, bottlenose dolphin (Tursiops truncatus)
assayContext: bottlenose dolphin (Tursiops truncatus), in vivo; Case dolphins fed modified diet (n = 20), Month 3, 2 h postprandial
testReadout: concentration at 3 month (µM)

[[record]]
chemicalsmiles = "CCCCCCCCCCCCCCCC(=O)O"
resultvalue = 1500

[[record]]
chemicalsmiles = "CCCCCCCCCCCCCCCCCCCCCC(=O)O"
resultvalue = 23


---

assayProtocol: Total serum fatty acid concentrations in dolphins fed modified diet
Format: in vivo, bottlenose dolphin (Tursiops truncatus)
assayContext: bottlenose dolphin (Tursiops truncatus), serum, oral; Case dolphins fed modified diet (n = 20), Month 3, 2 h postprandial
Each entry below carries its recorded concentration at 3 month.
testReadout: concentration at 3 month (µM)

[[record]]
chemicalsmiles = "CCCCCCCCCCCCCCCCC(=O)O"
resultvalue = 93

[[record]]
chemicalsmiles = "CCCCCCCCCCCCCC(=O)O"
resultvalue = 226

[[record]]
chemicalsmiles = "CCCCCCCCCCCCCCC(=O)O"
resultvalue = 111


---

assayProtocol: Serum fatty acid form concentrations (complex lipidomics) in dolphins fed modified diet
Format: in vivo, bottlenose dolphin (Tursiops truncatus)
assayContext: case dolphins fed modified diet (n = 20), Month 6
Measured Serum concentrations of fatty acid forms, listed per entry for reference.
testReadout: Serum concentrations of fatty acid forms

[[record]]
chemicalsmiles = "CCCCCCCCCCCCCCCCCCCCCC(=O)O[C@H]1CC[C@@]2(C)C(=CC[C@H]3[C@@H]4CC[C@H]([C@H](C)CCCC(C)C)[C@@]4(C)CC[C@@H]32)C1"
testreadout = "Serum concentrations of fatty acid forms"
resultvalue = "6.3 ± 2.1 µM"

[[record]]
chemicalsmiles = "CCCCCCCCCCCCCCCCCCCC(=O)O"
testreadout = "Serum concentrations of fatty acid forms"
resultvalue = "17 ± 10 µM"

[[record]]
chemicalsmiles = "CCCCCCCCCCCCCCCC(=O)O[C@H]1CC[C@@]2(C)C(=CC[C@H]3[C@@H]4CC[C@H]([C@H](C)CCCC(C)C)[C@@]4(C)CC[C@@H]32)C1"
testreadout = "Serum concentrations of fatty acid forms"
resultvalue = "245 ± 48 µM"

[[record]]
chemicalsmiles = "CCCCCCCCCCCCCCC(=O)O"
testreadout = "Serum concentrations of fatty acid forms"
resultvalue = "3.8 ± 1.3 µM"

[[record]]
chemicalsmiles = "CCCCCCCCCCCCC/C=C/[C@@H](O)[C@H](CO)NC(=O)CCCCCCCCCCCCCCCCCCCCC"
testreadout = "Serum concentrations of fatty acid forms"
resultvalue = "0.25 ± 0.06 µM"

[[record]]
chemicalsmiles = "CCCCCCCCCCCCCC(=O)O[C@H]1CC[C@@]2(C)C(=CC[C@H]3[C@@H]4CC[C@H]([C@H](C)CCCC(C)C)[C@@]4(C)CC[C@@H]32)C1"
testreadout = "Serum concentrations of fatty acid forms"
resultvalue = "92 ± 25 µM"

[[record]]
chemicalsmiles = "CCCCCCCCCCCCCCCCC(=O)O[C@H]1CC[C@@]2(C)C(=CC[C@H]3[C@@H]4CC[C@H]([C@H](C)CCCC(C)C)[C@@]4(C)CC[C@@H]32)C1"
testreadout = "Serum concentrations of fatty acid forms"
resultvalue = "21 ± 9 µM"


---

assayProtocol: Serum fatty acid form concentrations (complex lipidomics) in dolphins fed modified diet
Type: in vivo, bottlenose dolphin (Tursiops truncatus)
assayContext: case dolphins fed modified diet (n = 20), Month 3
Description: Determination of serum fatty acid concentrations, including a variety of fatty acid classes, were performed by Metabolon, Inc. (Durham, N.C.) using complex lipidomics. […] Each sample was subjected to 2 analyses, with IMS-MS conditions optimized for lipid classes monitored in each analysis. […] Individual lipid species were quantified based on the ratio of signal intensity for target compounds to the signal intensity for an assigned internal standard of known concentration. […]
Serum concentrations of fatty acid forms reference
testReadout: Serum concentrations of fatty acid forms (µM)

[[record]]
chemicalsmiles = "CCCCCCCCCCCCC/C=C/[C@@H](O)[C@H](CO)NC(=O)CCCCCCCCCCCCCCCCCCC"
testreadout = "Serum concentrations of fatty acid forms"
resultvalue = 0.42

[[record]]
chemicalsmiles = "CCCCCCCCCCCCCCCCCCCC(=O)O"
testreadout = "Serum concentrations of fatty acid forms"
resultvalue = 5.0

[[record]]
chemicalsmiles = "CCCCCCCCCCCCCC(=O)O[C@H]1CC[C@@]2(C)C(=CC[C@H]3[C@@H]4CC[C@H]([C@H](C)CCCC(C)C)[C@@]4(C)CC[C@@H]32)C1"
testreadout = "Serum concentrations of fatty acid forms"
resultvalue = 93

[[record]]
chemicalsmiles = "CCCCCCCCCCCCCCCCCCCCCC(=O)O[C@H]1CC[C@@]2(C)C(=CC[C@H]3[C@@H]4CC[C@H]([C@H](C)CCCC(C)C)[C@@]4(C)CC[C@@H]32)C1"
testreadout = "Serum concentrations of fatty acid forms"
resultvalue = 5.9

[[record]]
chemicalsmiles = "CCCCCCCCCCCCCCCCC(=O)O[C@H]1CC[C@@]2(C)C(=CC[C@H]3[C@@H]4CC[C@H]([C@H](C)CCCC(C)C)[C@@]4(C)CC[C@@H]32)C1"
testreadout = "Serum concentrations of fatty acid forms"
resultvalue = 20

[[record]]
chemicalsmiles = "CCCCCCCCCCCCCCCC(=O)O[C@H]1CC[C@@]2(C)C(=CC[C@H]3[C@@H]4CC[C@H]([C@H](C)CCCC(C)C)[C@@]4(C)CC[C@@H]32)C1"
testreadout = "Serum concentrations of fatty acid forms"
resultvalue = 244

